System: A498
Test: Anticancer activity against human A498 cells after 48 hrs by sulforhodamine B assay
Assay type: functional
Conditions: Homo sapiens, A498, 48 h; read-out: LC50 (the source's name)
measurement.type: CC50

INPUT: Fill blank: measured CC50 of the molecule `CCCCCCCCCCCCCCCCCC[n+]1ccn(C)c1.[Cl-]` is ____.
OUTPUT: 8.94 µM

INPUT: Next up: `CCCCCCCCCCCCCCCCCC[n+]1ccn(C)c1.FC(F)(F)C(F)(F)[P-](F)(F)(F)(C(F)(F)C(F)(F)F)C(F)(F)C(F)(F)F`
OUTPUT: 3.39 µM

INPUT: Next up: `CCCCCCCCCCCCCCCC[n+]1ccn(C)c1.[Cl-]`
OUTPUT: 7.39 µM

INPUT: Next up: `CCCCCCCCCCCCCCCCCC[n+]1ccn(C)c1.O=S(=O)([N-]S(=O)(=O)C(F)(F)F)C(F)(F)F`
OUTPUT: 6.22 µM

INPUT: Next up: `CCCCCCCCCCCC[n+]1ccn(C)c1.[Cl-]`
OUTPUT: > 100 µM
